Every entry's value here was drawn from ChEMBL document CHEMBL5579884.

molecular target: E3 ubiquitin-protein ligase Mdm2 (Homo sapiens, UniProt Q00987)
Sequence (Q00987 whole entry): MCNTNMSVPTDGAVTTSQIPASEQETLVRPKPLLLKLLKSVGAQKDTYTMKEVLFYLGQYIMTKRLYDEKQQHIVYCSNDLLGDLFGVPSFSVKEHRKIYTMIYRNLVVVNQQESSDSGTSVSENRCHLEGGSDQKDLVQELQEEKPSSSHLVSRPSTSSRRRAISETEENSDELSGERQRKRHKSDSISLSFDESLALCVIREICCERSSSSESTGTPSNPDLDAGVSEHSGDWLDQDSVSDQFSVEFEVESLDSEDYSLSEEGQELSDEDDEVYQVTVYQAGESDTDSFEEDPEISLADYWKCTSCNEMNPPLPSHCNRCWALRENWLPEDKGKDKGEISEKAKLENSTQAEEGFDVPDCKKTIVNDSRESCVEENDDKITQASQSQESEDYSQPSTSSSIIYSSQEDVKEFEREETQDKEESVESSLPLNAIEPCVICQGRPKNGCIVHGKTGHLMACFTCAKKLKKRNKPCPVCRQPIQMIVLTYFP
assayMetric: pIC50
Answers are plain numbers, as −log10 of the molar value.

Specify measured pIC50 for CC(C)C(=O)Nc1ccccc1SC(=O)C(C)C .
4.88

* * *

target: E3 ubiquitin-protein ligase Mdm2 (Homo sapiens, UniProt Q00987)
assayMetric: pKd
Give bare numbers, as −log10 of the molar value.

Assign pKd to the following record: Ac-ETFLDLWKLELEN-NH2
3.83

* * *

biological target: E3 ubiquitin-protein ligase Mdm2 (Homo sapiens, UniProt Q00987)
assayMetric: pKi
Numbers only, as −log10 of the molar value.

Supply pKi value. Item: O=c1cc(-c2ccc(Oc3c(O)cc4oc(-c5ccc(O)cc5)cc(=O)c4c3O)cc2)oc2cc(O)cc(O)c12 [HINOKIFLAVONE]
4.89
